Origin of measurements: patent US20110028447A1

Give measured pKi for each item. Keep answers brief.
ASSAYED TARGET: human CB1 receptor (Homo sapiens, UniProt P21554)
Sequence (P21554 whole entry): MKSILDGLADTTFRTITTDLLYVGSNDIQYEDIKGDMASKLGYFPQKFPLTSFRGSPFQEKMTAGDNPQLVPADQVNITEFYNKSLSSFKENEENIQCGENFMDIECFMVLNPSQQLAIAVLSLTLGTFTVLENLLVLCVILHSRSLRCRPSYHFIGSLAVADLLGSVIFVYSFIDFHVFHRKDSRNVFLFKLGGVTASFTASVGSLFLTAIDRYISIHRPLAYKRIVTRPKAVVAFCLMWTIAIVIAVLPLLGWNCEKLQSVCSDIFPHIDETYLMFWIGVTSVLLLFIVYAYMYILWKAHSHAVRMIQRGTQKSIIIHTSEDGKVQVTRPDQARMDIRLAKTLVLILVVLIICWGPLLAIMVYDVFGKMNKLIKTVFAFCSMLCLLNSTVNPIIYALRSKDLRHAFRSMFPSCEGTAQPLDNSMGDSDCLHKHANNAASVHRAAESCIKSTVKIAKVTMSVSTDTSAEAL
METHOD NOTES: Human CB1 receptor binding, [3H] CP-55,940 displacement on HEK cell membranes
Set-up: expressed in transfected cells; host or cells: HEK cells, doxycycline-induced; membrane preparation
ASSAY CONDITIONS: CB1 Ki
Give bare numbers, as −log10 of the molar value.

Look over these answered cases.
CC(C)(C)[C@H](NC(=O)c1nn(Cc2ccc(C#N)cc2F)c2c(F)cccc12)C(=O)NCC(N)=O
7.55
CC(C)(C)[C@H](NC(=O)c1nn(Cc2ccc(C#N)cc2)c2cc(F)ccc12)C(=O)NC(CO)CO
7.19

Now turn to the next compound.
Request: Please report the measured pKi for "CC(C)(C)[C@H](NC(=O)c1nn(Cc2ccc(F)cc2)c2ccccc12)C(=O)NCCC(N)=O"
Result: 7.95
